Test system: ScGT1
Test: Inhibition of SERPINA3N in mouse GT1 cells chronically infected with RML prion (ScGT1) assessed as reduction of PrPSc levels measured by western blot analysis
Format: cell-based
Design: concentration or dose not given beside the values
Exercise: state measured Activity for each of the compounds provided.
Numbers only, in %.

O=C(NC1CCCOC1)c1cnn(-c2ccc(F)cc2)c1 (configuration not stated): 50
CC(=O)N1CCC(C(=O)c2cnn(-c3cccc(F)c3)c2N)CC1: 50
Nc1c(C(=O)c2c[nH]c3ccccc23)cnn1-c1ccccc1: 50
Cc1ccc(-n2ncc(C(=O)C3CCN(C(=O)c4scnc4C)CC3)c2N)cc1: 50
Nc1c(C(=O)C2CCN(C(=O)c3ccno3)CC2)cnn1-c1ccccc1: 50

Could I get Activity for every one of these entries?
1. Cc1ccc(-n2ncc(C(=O)C3CCN(C(=O)C4CCC4)C3)c2N)cc1 (configuration not stated)
2. Cc1n[nH]c(C)c1CNC(=O)c1cnn(-c2ccc(F)cc2)c1

1: 50; 2: 50
